# Species on record: Rattus norvegicus
# experiment summary: Open TG-GATES - Regimen: Single
# Format: toxicity, organism-based, Sprague-Dawley
# Parameters: regimen Single, gender Male, age 6 weeks
# measurement conditions: in vivo, po, 0 mg/kg, 9 h, route gavage, dose level Control
Each record here notes measured TERMINAL_BW.

compound | quantity unit | TERMINAL_BW
CC(=O)N1CCN(c2ccc(OCC3COC(Cn4ccnc4)(c4ccc(Cl)cc4Cl)O3)cc2)CC1 (configuration not stated) | g | 201.8
CC(C)Cc1ccc(C(C)C(=O)O)cc1 (configuration not stated) | g | 198.1
CC(=O)Nc1ccc2c(c1)Cc1ccccc1-2 | g | 217
CC[C@@H](CO)NCCN[C@@H](CC)CO | g | 220
CCN(CC)N=O | g | 228.4
CC(CCc1ccccc1)NCC(O)c1ccc(O)c(C(N)=O)c1 (configuration not stated) | g | 217.8
O=C(O)COc1nn(Cc2ccccc2)c2ccccc12 | g | 211.9
